Every entry's value here was drawn from PubChem BioAssay AID485297.

# EXPERIMENT_SUMMARY: qHTS Assay for Rab9 Promoter Activators; note: nearly all actives have a fitted effect of over 60% in size
# CONDITION_INFO: Huh7 Rab9 promoter-luciferase reporter, luminescence, 24 h; series mostly up to 9.22 µM
The whole screen tested about 320,000 compounds, of which about 9,100 (2.8%) were called active. Inconclusive results (about 3%) are left out. Calls come from the whole dose curve; as a rule, active = well fitted activation curve with a large enough effect; inconclusive = small, poorly fitted or top-dose-only effect; inactive = no such curve, though single readings can be large or run the other way. For the sample, actives were picked, then their nearest neighbours and some compounds at random.
// allowed return values: T = active, F = inactive

Could you check what this test reported for Nc1nnc(SCC(=O)NCC(=O)Nc2ccc(F)c(F)c2F)s1 ?
F

Just curious, what result did Cc1cc(F)ccc1S(=O)(=O)Nc1ccc(C(=O)N(C)Cc2ccco2)cc1 get here?
F

Recorded test call requested for Cc1ccc(S(=O)(=O)N(C)C)cc1NC(=O)C(C)OC(=O)c1ccc2ccccc2n1 (stereo not given)
F

Lab log entry: CN(C(=O)CSc1nnc(C2CC2)n1C)C1CCCc2ccccc21 (stereo not given) — outcome as called in the assay?
F

Record lookup: outcome of this test for CCCNS(=O)(=O)c1ccc(CCC(=O)NCc2cccnc2)cc1 ?
F

# outcome recorded in this test, key = COC(=O)C1=C(C)NC(=S)NC1c1ccc(OCC(=O)N2CC(C)OC(C)C2)c(OC)c1 (stereo not given)
F

What call does the record list for CCc1ccc(N(CC(=O)NCc2cccnc2)S(=O)(=O)c2ccccc2)cc1 ?
T

Entry COc1ccccc1C(CNC(=O)c1cccc(S(=O)(=O)Nc2ccc(F)cc2)c1)N(C)C (stereo not given) : call = ?
F

Please state the recorded outcome for this molecule: Cc1ccc(Nc2nc(N)nc(CSc3nnc(C)s3)n2)cc1
T

Would you mind telling me which call this test gave CCOC(=O)N1CCN(Cc2nc(N)nc(Nc3ccc(C)cc3)n2)CC1 ?
F

###

# EXPERIMENT_SUMMARY: qHTS Assay for Rab9 Promoter Activators; note: nearly all actives have a fitted effect of over 60% in size; note: potency is the fitted concentration of half-maximal effect
# CONDITION_INFO: Huh7 Rab9 promoter-luciferase reporter, luminescence, 24 h; series mostly up to 9.22 µM
Hit rate of the full screen: of about 320,000 compounds, about 9,100 (2.8%) were called active. Roughly 3% stayed inconclusive and do not appear here. The sample as a whole holds a higher share of actives than the screen did.
REPORTED_METRIC: Potency

Some solved cases for reference:
- COMPOUND: "Cc1nn(C)c(Cl)c1CN1CCC(n2nccc2NC(=O)C2CCCC2)CC1"
  OBS_VALUE: "inactive"
- COMPOUND: "CS(=O)(=O)N1CCc2nc(-c3ccccc3)sc2C1"
  OBS_VALUE: "1580 nM (active)"
- COMPOUND: "COC(=O)CNS(=O)(=O)c1ccc(Cc2ccc(S(=O)(=O)NCC(=O)OC)cc2)cc1"
  OBS_VALUE: "1260 nM (active)"
- COMPOUND: "Cc1ccc(-c2nc3c(cnn3-c3ccccc3)c(=O)o2)cc1"
  OBS_VALUE: "inactive"
- COMPOUND: "O=C(OCC(=O)N1CCCC1)c1ccc(Cl)nc1"
  OBS_VALUE: "inactive"

Query Potency for O=C(CSc1ncnc2sccc12)N1CCN(C(=O)c2cccs2)CC1
inactive

Provide Potency value for the following compound: CCN(C(=O)COC(=O)Cc1c(F)cccc1Cl)c1c(N)n(Cc2ccccc2)c(=O)[nH]c1=O
inactive

# return recorded Potency for entry O=C(C1Cc2ccccc2CN1C(=O)c1ccco1)N1CCN(c2ccccc2)CC1 (centres undefined)
inactive

Query Potency for CC(NC(=O)c1ccco1)C(=O)Nc1nc(-c2ccccn2)cs1 (centres undefined)
inactive

Answer with the recorded Potency for the compound listed here: CCC(=O)NC(=Nc1nc2ccccc2s1)NC(=O)CC
3550 nM (active)

# return recorded Potency for entry CC(=O)Nc1cc2ccc(OC(C)=O)cc2oc1=O
inactive

Provide measured Potency value, entry: CC(=O)Nc1cccc(-c2nc3ccccc3s2)c1C
inactive

Tell me Potency reported for COc1ccc(-c2csc(Nc3ccccn3)n2)cc1
282 nM (active)

Please look at this compound and report its Potency: CCN(CC(=O)Nc1c(F)cccc1F)C(=O)c1ccc(-c2ccccc2)cc1
inactive

Return value of Potency for input O=C(c1cnn(-c2ccc(Cl)cc2)c1)c1ccccc1O , no commentary.
3550 nM (active)
